Test system: PpGluDH-A167G
Procedure Details: Catalytic activity toward other keto acid substrates by spectrophotometry, A167G mutant
Type: biochemical, Pseudomonas putida
Study Conditions: PpGluDH-A167G; keto acid as substrate
Label satisfied when Specific activity (U/mg) A167G >= 1 U/mg; otherwise not satisfied.

Worked set:
O=C(O)C(=O)Cc1ccccc1 [11a, Phenylpyruvic acid] ... not satisfied
CCCCC(=O)C(=O)O ... satisfied
CC(=O)C(=O)O ... not satisfied
CC(C)C(=O)C(=O)O ... not satisfied
O=C(O)C(=O)CCc1ccccc1 [12a, 2-Oxo-4-phenylbutyric acid] ... not satisfied
CCC(C)C(=O)C(=O)O (stereo not drawn) ... not satisfied
CCCC(=O)C(=O)O ... satisfied
O=C(O)CCC(=O)C(=O)O ... satisfied
CC(C)CC(=O)C(=O)O ... not satisfied
CCC(=O)C(=O)O ... not satisfied

input: Does O=C(O)C(=O)Cc1ccc(O)cc1 [13a, 4-hydroxyphenylpyruvic acid] have a reported Specific activity (U/mg) A167G of at least 1 U/mg?
output: not satisfied

input: Given O=C(O)C(=O)c1ccccc1 [10a, Phenylglyoxylic acid] , state whether its Specific activity (U/mg) A167G is at least 1 U/mg.
output: not satisfied
